# measured-target: T1, Recombinant human Glypican-3 (human, UniProt P51654 25-559, limits assumed, randomly biotinylated via Lysine residues (EZ-Link Sulfo-NHS-LC-LC-Biotin) where captured on Neutravidin; not biotinylated where used as competitor in solution)
# T1 construct: Bought protein; The biotinylated and the non-biotinylated preparation are written as one molecule; also called GPC3; GPC-3
# T1 sequence (P51654 25-559 limits assumed): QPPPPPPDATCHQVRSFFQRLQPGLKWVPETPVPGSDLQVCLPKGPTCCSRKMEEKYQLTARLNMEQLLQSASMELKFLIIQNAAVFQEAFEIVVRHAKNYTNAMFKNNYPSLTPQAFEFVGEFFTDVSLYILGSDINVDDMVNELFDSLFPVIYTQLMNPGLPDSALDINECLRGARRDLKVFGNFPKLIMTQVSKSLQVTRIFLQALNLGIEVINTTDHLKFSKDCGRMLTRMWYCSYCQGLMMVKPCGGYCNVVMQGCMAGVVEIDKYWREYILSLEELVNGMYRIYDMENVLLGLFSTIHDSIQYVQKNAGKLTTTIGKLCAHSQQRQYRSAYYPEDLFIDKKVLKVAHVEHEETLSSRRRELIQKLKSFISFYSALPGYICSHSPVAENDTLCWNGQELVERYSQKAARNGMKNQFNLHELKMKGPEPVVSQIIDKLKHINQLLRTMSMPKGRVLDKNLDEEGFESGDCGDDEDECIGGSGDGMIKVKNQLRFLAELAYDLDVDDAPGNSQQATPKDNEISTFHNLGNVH
# experiment: competition ELISA: constant mutein pre-incubated with a dilution series of non-biotinylated human Glypican-3, free mutein detected on plate-captured biotinylated human Glypican-3
Reported values of pIC50 for individual entries
The value called pIC50 is obtained by taking minus log10 of the concentration in mol/L.

Task item: Need pIC50, item PIE-G3A (designed binder, Made in E. coli from phNGAL98 with a C-terminal Strep-tag II; also called Lcn2 mutein; not shown: C-terminal Strep-tag II) QDSTSDLIPAPPLSKVPLQQNFQDNQFHGKWYVVGIAGNWILREDKDPPKMRATIYELKEDKSYNVTRVRFDEKKCGYGIATFVPGSQPGEFTLGVIKSRPGITSDLVRVVSTNYNQHAMVFFKFVKQNREYFGITLYGRTKELTSELKENFIRFSKSLGLPENHIVFPVPIDQCIDGSAWSHPQFEK
Reply: 9.22

Task item: Need pIC50, item PIE-G3E (designed binder, C-terminal Strep-tag II; also called Lcn2 mutein; not shown: C-terminal Strep-tag II) QDSTSDLIPAPPLSKVPLQQNFQDNQFHGKWYVVGSAGNHRLREDKDPRKMHATIYELKEDKSYNVTNVTFREKKCHYSIGTFVPGSQPGEFTLGKIKSNPGMTSFLVRVVSTNYNQHAMVFFKKVHQNREQFNITLYGRTKELTSELKENFIRFSKSLGLPENHIVFPVPIDQCIDGSAWSHPQFEK
Reply: 10.00

The values you see were collected from patent US20130296258A1.
